Assay: NCI Yeast Anticancer Drug Screen. Data for the bub3 strain (AID 167)
Conditions: S. cerevisiae bub3 mutant strain, at 50.0 µM (retest, dose inferred, filed as 5.0), hits give high values
Compounds without any hit were thinned out: in the full panel of roughly 79,000, 15% have a hit.
# label = MET if growth inhibition >= 90% else NOT MET

Check if growth inhibition >= 90% (inclusive). Item: OC1C2[C@@H](O)CCCN2C[C@@H](O)[C@H]1O (stereo partly specified) NOT MET

Follow-up entry: O=C(CBr)OCC(Br)CBr (stereo unspecified) NOT MET

Follow-up entry: COc1ccc(/C=C(\C)[N+](=O)[O-])cc1OC MET

Follow-up entry: Cc1[cH-]c(=O)n(-c2ccccc2)n1.[Au+].[Au].c1ccc([PH+](c2ccccc2)c2ccccc2)cc1.c1ccc([PH+](c2ccccc2)c2ccccc2)cc1 NOT MET

Follow-up entry: C/C(=N\N=C(/[Se])N1CCC(C)CC1)c1ccccn1 NOT MET

Follow-up entry: Oc1c(Cl)cc(Cl)c2ccccc12.[Cu+2] MET

Follow-up entry: O=[N+]([O-])/C=C/c1ccc([N+](=O)[O-])cc1 MET

Follow-up entry: COc1ccccc1/C=C/[N+](=O)[O-] MET

Follow-up entry: COc1ccc([As]=[As]c2ccc(OC)c(I)c2)cc1I (stereo unspecified) MET

Follow-up entry: Cc1cc(OC(=O)N(CCCl)CCCl)c(C(C)C)cc1N=O MET

Follow-up entry: CN(Cc1ccccc1)CC(O)c1cccc(I)c1 (stereo unspecified) NOT MET

* * *

Experiment: NCI Yeast Anticancer Drug Screen. Data for the mec2-1 strain (AID 157)
Conditions: S. cerevisiae mec2-1 strain, at 50.0 µM, hits give high values
Experimental: Growth inhibition of yeast strains with defined genetic alterations is measured as a screen for potential anti-cancer activity. Selected strains with alterations in DNA damage repair or cell cycle control were exposed to compounds and growth inhibition was measured relative to vehicle treated controls. The strain used in this assay is mec2-1
Compounds without any hit were thinned out: in the full panel of roughly 79,000, 15% have a hit.
# label = y if growth inhibition >= 30% else n

Check if growth inhibition >= 30% (inclusive). Item: O=[P+](O)O[P+](=O)O.O=[P+](O)O[P+](=O)O.O=[P+](O)O[P+](=O)O.O=[P+](O)O[P+](=O)O.[Cl][Pt].[Cl][Pt] n

Follow-up entry: CC1(C)CCC(C)(C)c2c1ccc(O)c2Cc1c(O)ccc2c1C(C)(C)CCC2(C)C n

Follow-up entry: CN(C)c1ccc(SC(Cl)(Cl)Cl)cc1 n

Follow-up entry: C=C1CC2CC[C@@]34CC5O[C@@H]6C(O[C@H]7CC[C@H](CC(=O)OC8C(C)C9OC%10C[C@]%11(C[C@@H]%12O[C@]%13(CC(C)[C@@H]%14O[C@H](C(O)CC(O)CO)C[C@@H]%14O%13)CC(C)[C@@H]%12O%11)OC%10CC9O[C@H]8C[C@H]8OC(CC[C@@H]1O2)C[C@@H](C)C8=C)OC7[C@@H]6O3)[C@H]5O4 (stereo not given in full) y

Follow-up entry: CCC1(CC)COP(=S)(S)OC1 n

Follow-up entry: CC1(Cl)CC2C(CC1Sc1nnnn1-c1ccccc1)C2(C)C (stereo not given) n

Follow-up entry: COC1CCC(OC2CC(C3(C)CCC4(CC(O)C(C)C(C(C)/C=C(\C)C(=O)C(C)CC(C)C(=O)O)O4)O3)OC3(OC(C4OC(O)(CO)C(C)CC4C)CC3C)C2C)OC1C (stereo not given) y

Follow-up entry: O=C(O)C(Br)C(Br)C(=O)O.[Ag] (stereo not given) y

Follow-up entry: CCO[C@@H]([CH2][Hg][Cl])[C@](C)([CH2][Hg][Cl])OCC y

Follow-up entry: COc1ccc(C[C@H]2NC[C@H](O)[C@H]2OC(C)=O)cc1 y

Follow-up entry: O=C1CN=CN1 n

Follow-up entry: CC(C)c1cc([N+](=O)[O-])cc([N+](=O)[O-])c1O y

Follow-up entry: Nc1nc(N)[nH]c(=O)n1 n

Follow-up entry: N#Cc1cc([N+](=O)[O-])c(Cl)c([N+](=O)[O-])c1Cl y

Follow-up entry: [CH3][Sn]([CH3])([CH3])[S]C(=S)N1CCOCC1 y

Follow-up entry: CCCCCCCCCCCCCCC(=O)[O][Hg][c]1ccccc1 y

Follow-up entry: O=C1NC(=O)C(c2ccsc2)C(=O)N1 n

Follow-up entry: C[N+](C)(C)Cc1ccc2ccccc2c1Br n

Follow-up entry: O=C1C=CC=C[C@@H]2C(C3OCCO3)CC[C@H]12.[C-]#[O+].[C-]#[O+].[C-]#[O+].[Fe] (stereo not given in full) n
